# assayed_system: mitochondrial succinate dehydrogenase (SDH) (Zymoseptoria tritici, UniProt F9X9V6+F9XH52+O42772, N33T/N34T)
# assay_overview: biochemical
# measurement_conditions: IC50
In this section we review reported IC50 values for a set of compounds.
Reply with just the number (in nM).

1. Cn1cc(C(=O)Nc2ccc(F)cc2-c2ccc(Cl)c(Cl)c2)c(C(F)F)n1 [Bixafen, bixafen]	31

Q: # lookup: IC50 of O=C(NCCc1ncc(C(F)(F)F)cc1Cl)c1ccccc1C(F)(F)F [Fluopyram, fluopyram]
A: 134

Q: Would you mind doing Cc1cc(OC(C)C)ccc1C(=O)C(C)(C)NC(=O)c1sccc1C [Isofetamid] as well?
A: 46

Origin of the recorded values: paper PMC5814837
